# assay method text: Pharmacokinetic study, plasma by UHPLC-MS/MS
# Assay type: in vivo, Sprague-Dawley (SD) rats
# applied conditions: male, Sprague-Dawley, po; rat plasma, p.o. 20 mg/kg
recorded metric: Tmax (h)

| compound | unit descriptor | measured value |
| --- | --- | --- |
| CC(=O)N(C)c1cccc(-c2ccc3nnc(C)n3n2)c1 [C1632] | h | 1.04 |

----------
# assay method text: Pharmacokinetic study, plasma by UHPLC-MS/MS
# Type: in vivo, Sprague-Dawley (SD) rats
# applied conditions: male, Sprague-Dawley, iv; rat plasma, i.v. 4 mg/kg

| compound | Tmax (min) |
| --- | --- |
| CC(=O)N(C)c1cccc(-c2ccc3nnc(C)n3n2)c1 [C1632] | 31.8 |

----------
# assay method text: Pharmacokinetic study, plasma by UHPLC-MS/MS
# Type: in vivo, Sprague-Dawley (SD) rats
# applied conditions: male, Sprague-Dawley, iv; rat plasma, i.v. 4 mg/kg
recorded metric: Cmax (ng/mL)

| item smiles | measured value |
| --- | --- |
| CC(=O)N(C)c1cccc(-c2ccc3nnc(C)n3n2)c1 | 2070 |

----------
# assay method text: Pharmacokinetic study, plasma by UHPLC-MS/MS
# Format: in vivo, Sprague-Dawley (SD) rats
# applied conditions: male, Sprague-Dawley, po; rat plasma, p.o. 20 mg/kg; read-out: CLz/F (converted)
# Procedure: Agilent 1290 UHPLC system and 6420 series Triple‐Quadrupole Tandem Mass Spectrometer (Agilent Corporation) maintained at 35°C with a ZORBAX Eclipse Plus C18 column (1.8 μm, 2.1 × 50 mm). […] The desolation gas (nitrogen) flow was set to 10 L/h: the capillary voltage: 4000 V; nebulizing gas and drying gas (both nitrogen): 45 psi and 350°C, respectively. The MRM mode with m/z 282.2→76.9 for C1632 and m/z 282.1→194.0 for IS was used for quantitative analysis. […]

| compound | unit descriptor | CL/F |
| --- | --- | --- |
| CC(=O)N(C)c1cccc(-c2ccc3nnc(C)n3n2)c1 [C1632] | mL/min/kg | 46.2 |

----------
# assay method text: Tissue distribution study
# Format: in vivo, mice
# applied conditions: tissues (major organs), homogenized; mouse, 20 mg/kg, oral administration; sampled at 0.25, 2 and 6 h; read-out: time of peak concentration in major organs
recorded metric: Tmax (min)

| item smiles | unit descriptor | measured value |
| --- | --- | --- |
| CC(=O)N(C)c1cccc(-c2ccc3nnc(C)n3n2)c1 | min | 15 |

----------
# assay method text: Pharmacokinetic study, plasma by UHPLC-MS/MS
# Format: in vivo, Sprague-Dawley (SD) rats
# applied conditions: male, Sprague-Dawley, po; rat plasma, p.o. 20 mg/kg
recorded metric: Cmax (ng/mL)

| item smiles | measured value |
| --- | --- |
| CC(=O)N(C)c1cccc(-c2ccc3nnc(C)n3n2)c1 | 4240 |

----------
# assay method text: Pharmacokinetic study, plasma by UHPLC-MS/MS
# Format: in vivo, Sprague-Dawley (SD) rats
# applied conditions: male, Sprague-Dawley, iv; rat plasma, i.v. 4 mg/kg; read-out: MRT(0-t)

| item smiles | unit descriptor | MRT last |
| --- | --- | --- |
| CC(=O)N(C)c1cccc(-c2ccc3nnc(C)n3n2)c1 | h | 1.57 |

----------
# assay method text: Pharmacokinetic study, plasma by UHPLC-MS/MS
# Type: in vivo, Sprague-Dawley (SD) rats
# applied conditions: male, Sprague-Dawley, po; rat plasma, p.o. 20 mg/kg; read-out: t1/2z (converted)

| item smiles | half-life (h) |
| --- | --- |
| CC(=O)N(C)c1cccc(-c2ccc3nnc(C)n3n2)c1 | 1.05 |
